Just for reference, PubChem BioAssay AID623908 is where these values come from.

- Test Method Notes: membrane potential response in parental HEK293 cells, counter-screen for CHT activator project, cell-based, membrane potential dye (AID 623908)
- Details: parental HEK293, membrane potential dye fluorescence (FDSS); at 10 µM; measured after EC20 choline addition
About 1,500 (60%) of roughly 2,500 compounds were called active.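 Rule for the calls: active = duplicate-averaged ratio beyond 3 SD from buffer wells, up or down, though filed actives are nearly all decreases; inactive = the rest.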 So high a share suggests a set chosen from earlier hits. These entries were drawn from the full list.
Classes used: active, inactive

Molecule	Label Value
COc1ccc2c(c1)cc1n2CCN=C1NN	active
COc1ccc([N+](=O)[O-])cc1N(CC(O)CN(CC(C)C)CC(C)C)S(=O)(=O)c1ccc(C)cc1 (configuration not stated)	inactive
CC(C)CC(COCc1ccc(Cl)cc1)N1CCN(C(=O)c2ccc(C(F)(F)F)cc2)CCC1=O (configuration not stated)	inactive
Nc1ccccc1SCc1cc([N+](=O)[O-])cc2c1OCOC2	inactive
COc1ccc(CC2c3cc(OC)c(OC)cc3CC[N+]2(C)CCC(=O)OCCCCCOC(=O)CC[N+]2(C)CCc3cc(OC)c(OC)cc3C2Cc2ccc(OC)c(OC)c2)cc1OC (configuration not stated)	active
CCCCCCCCCCOC(=O)Cn1c(COc2ccc(C)cc2)[n+](C)c2ccccc21	active
Cc1nc2ccccc2c(=O)n1CCCn1ccnc1	inactive
Cc1c(C)c2c(OCC(=O)N[C@@H](C(=O)O)c3ccccc3)cc3c(c2oc1=O)CCC(C)(C)O3	inactive
CCCCCCCCCCOC(=O)Cn1c(COc2cccc(OC)c2)[n+](C)c2ccccc21	active
C[C@H]1CCC(=O)N([C@H](CSc2ccccc2)Cc2ccccc2)CC1	inactive
COC(=O)c1ccc(C(NC(=O)OCc2ccccc2)/C(C)=C/[C@@H](C)C(=O)NCc2ccc(OC)c(OC)c2)cc1 (some centres not stated)	inactive
Cc1c(CCOC(=O)CC23CC4CC(CC(C)(C4)C2)C3)sc[n+]1Cc1ccc([N+](=O)[O-])cc1	active
COc1cc2nc(N3CCN(C(=O)[C@@H]4CCCO4)CC3)nc(N)c2cc1OC	active
O=C(C1=C(O)C(=O)N(Cc2ccccc2)C1c1ccco1)c1ccco1 (configuration not stated)	inactive
O=Cc1ccc(OCc2cn3ccccc3n2)cc1	active
Cc1ccc(-n2c(C)cc(/C=N\NC(=O)CC(=O)NC(C)C)c2C)cc1	inactive
CN(C)c1cc[n+](Cc2ccccc2)cc1	active
Cc1ccc2c(c1)N(CC(=O)N(Cc1ccccn1)Cc1ccco1)C(=O)C(C(C)C)O2 (configuration not stated)	inactive
Cc1cccn2c(=O)c3cc(C#N)c(=O)n(CCCN4CCOCC4)c3nc12	active
Cc1nnc(-c2ccc(Oc3ccc(C)c(C)c3)c([N+](=O)[O-])c2)o1	inactive
Cc1cc(NC(=O)c2cnn3cccnc23)n(-c2ccccc2)n1	active
COc1cc2c(cc1OC)C(c1cccc([N+](=O)[O-])c1)=NCC2	active
C=CCNc1nnc(C)c2ccccc12	active
CC(=O)N1CC[n+]2c(-c3ccc([N+](=O)[O-])cc3)csc21	active
N#C/C(=C\c1ccc(-c2cccc([N+](=O)[O-])c2)o1)C(=O)NCCN1CCOCC1	active
O=C(CCC1CCN(C(=O)c2cccc(Cl)c2F)CC1)Nc1ccccc1	inactive
CN(C)c1cc(N)c2ccccc2n1 (tested in a mixture with another compound)	active
Cc1cc(=O)oc2cc(OCCC[n+]3ccccc3)ccc12	active
Cc1cc2c(cc1C)[n+](C)cn2CC(O)COCC1CC=CCC1 (configuration not stated)	active
COC(=O)c1sc(C(F)(F)F)c(-c2ccccc2)c1S(=O)(=O)N(C)C	inactive
Nc1scc[n+]1Cc1cccc2cccnc12	active
COc1ccccc1NC(=O)CN(c1ccccc1OC)S(=O)(=O)c1ccccc1	inactive
CC(C)(C)Nc1nc(-c2ccccn2)nc2ccccc12	active
CN1CCN(c2cc3c(cc2F)c(=O)c(C(=O)O)cn3CCF)CC1	active
CCN1C(=NCCc2cccnc2)N[C@@H](c2ccccc2)[C@H](C(=O)OC)[C@H]1C	inactive
Cc1ccccc1C(=O)NCC(c1ccco1)N1CCc2ccccc21 (configuration not stated)	inactive
CCn1cc(S(=O)(=O)c2cccc(C)c2)c(=O)c2cc(F)c(N3CCN(C)CC3)cc21	active
Cn1c(=O)n(C)c2cc(C(=O)Nc3ccc4c(c3)OCO4)ccc21	active
CCN1/C(=C/c2ccc3ccc(C)cc3[n+]2CC)Sc2ccccc21	inactive
O=C(Nc1ccncc1)c1ccc(Cl)c([N+](=O)[O-])c1	active
CCCCN(CCCC)CC(O)Cn1c2ccccc2c(=O)c2ccccc21 (configuration not stated)	active
COc1ccc(Cn2c(-c3ccc(Cl)cc3)c[n+]3ccccc23)cc1	active
